Provenance of the data: PubChem BioAssay (EPA / NIEHS)

Assay: CCTE_Shafer_MEA_dev_interburst_interval_mean: CCTE's Neural Network Formation Assay for Mean Interburst Interval, Shafer Lab (AID 2284046);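 further: well-mean interburst interval of bursting electrodes as AUC over four recording days; curve fitted for decrease in interburst interval relative to DMSO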
Calls of active or inactive are those of the source. How the source made its calls: active means hit-call score of the fitted dose curve at least 0.9, where 1 is the maximum; inactive means score below 0.9.
Reply using exactly one outcome from active, inactive

[Q] Which outcome did this test record for the compound C[C@@H]1C[C@H]2[C@@H]3CCC4=CC(=O)C=C[C@]4(C)[C@@]3(F)[C@@H](O)C[C@]2(C)[C@@]1(O)C(=O)CO ?
[A] inactive

[Q] Returns: the outcome recorded for COc1ccc2cc3[n+](cc2c1OC)CCc1cc2c(cc1-3)OCO2 in this assay.
[A] active

[Q] So what was the verdict on NC(N)=Nc1nc(CSCCC(N)=NS(N)(=O)=O)cs1 in this test?
[A] inactive

[Q] What was the test verdict on CC1(C)S[C@@H]2[C@H](NC(=O)[C@H](N)c3ccc(O)cc3)C(=O)N2[C@H]1C(=O)O ?
[A] inactive

[Q] Short answer needed: outcome of this test for CC(C)(C)NCC(O)c1cc(O)cc(O)c1 (centres undefined) ?
[A] inactive

[Q] Could you check what this test reported for CNCCC(Oc1ccc(C(F)(F)F)cc1)c1ccccc1 (centres undefined) ?
[A] active

[Q] Would you mind telling me which call this test gave CN(C)CCC(c1ccc(Cl)cc1)c1ccccn1 (centres undefined) ?
[A] inactive

[Q] Which result was noted for this compound in the test: c1ccc2cc3c4ccccc4c4ccccc4c3cc2c1
[A] inactive

[Q] // outcome(item) with item = c1cc2ccc3ccc4ccc5cccc6c(c1)c2c3c4c56
[A] inactive
